- Study System: GST-Bcl-B ΔTM [GST: P08515]
- Method Summary: fluorescence polarization, 20 nM FITC-TR3-r8 with increasing GST-Bcl-B, HEPES/β-glycerophosphate buffer
Where no end group is shown, it is not given here. [ ]: non-standard residue; d: D form. The star is where a group is joined. FITC = O=C1OC2(c3ccc(O)cc3Oc3cc(O)ccc32)c2ccc(NC(=S)*)cc21; Ahx = NCCCCCC(=O)O
Recorded Metric: pKd
Please treat pKd as minus the base-10 logarithm of the molar concentration.

Query string: Give the value of pKd reported for the following: {FITC-Ahx}-FSRSLHSLLG[Ahx][dR][dR][dR][dR][dR][dR][dR][dR] [FITC-TR3-9-r8]
Result string: 7.70
